Molecular target: T1, human GREM1 (hGREM1-His; SEQ ID NO: 595) (human, UniProt O60565 25-184)
T1 construct: also called biotin-hGREM1-His; recombinant human GREM1 protein
T1 sequence: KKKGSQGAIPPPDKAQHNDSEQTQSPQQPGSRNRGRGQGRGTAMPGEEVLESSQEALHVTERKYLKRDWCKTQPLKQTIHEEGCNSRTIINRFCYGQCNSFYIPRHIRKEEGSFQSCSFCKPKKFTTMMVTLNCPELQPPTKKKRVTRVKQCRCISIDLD
Assay: SPR, Biacore T200, 37 C, mAb captured, hGREM1-His injected;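 note: HBS-EP running buffer containing heparin, association and dissociation phases tracked, KD computed as koff over kon and half-life derived from koff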

{"columns": ["Binder", "kon / M⁻¹ s⁻¹"],
 "data": [
  ["H4H6233P (antibody, human IgG4, V domains shown, H4H prefix = human IgG4 Fc) VH: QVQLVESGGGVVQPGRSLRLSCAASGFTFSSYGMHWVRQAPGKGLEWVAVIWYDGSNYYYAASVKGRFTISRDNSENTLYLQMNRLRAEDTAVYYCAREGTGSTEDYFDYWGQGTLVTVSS VL: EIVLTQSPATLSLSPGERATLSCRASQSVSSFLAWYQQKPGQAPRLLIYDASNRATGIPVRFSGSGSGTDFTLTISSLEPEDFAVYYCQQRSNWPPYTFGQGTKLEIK", 157000],
  ["H4H6260P (antibody, human IgG4, V domains shown, H4H prefix = human IgG4 Fc) VH: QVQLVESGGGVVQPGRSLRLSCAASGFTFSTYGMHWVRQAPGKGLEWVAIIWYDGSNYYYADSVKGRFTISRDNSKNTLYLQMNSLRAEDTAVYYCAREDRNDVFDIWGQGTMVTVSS VL: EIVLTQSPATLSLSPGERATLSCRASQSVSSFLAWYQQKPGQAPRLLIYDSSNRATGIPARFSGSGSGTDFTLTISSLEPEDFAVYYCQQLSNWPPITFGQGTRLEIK", 166000]
]}
